System: SK-MEL-28 melanoma
assayProcedure: NCI tumour cell line growth inhibition, 48 h
Would you kindly list TGI for each of these compounds?

(Q) Which measured TGI value corresponds to Fc1ccc2nc3n(c2c1)C(c1c(Cl)cccc1Cl)SC3 (centres undefined) ?
(A) > 100 µM

(Q) Record request: TGI value, item Cn1c2ccccc2c2c(=O)[nH]c(=O)[nH]c21
(A) > 100 µM

(Q) Which measured TGI value corresponds to O=C(Cn1ccnc1[N+](=O)[O-])c1ccc(F)cc1 ?
(A) > 100 µM

(Q) Field request: TGI | item: COc1ccc(/C=c2\sc3n(c2=O)C(N)=C(C#N)C(c2ccc(OC)cc2)C=3c2nc3ccccc3[nH]2)cc1 (centres undefined)
(A) 56.1 µM

(Q) Need TGI of N#Cc1c(N)sc2c1-c1ccccc1OC2 , thanks.
(A) > 100 µM

(Q) State the recorded TGI for this entry: CC(=O)OC(CCC1(C)OC1COc1ccc(CCNC(=O)c2ccccc2)cc1)C(C)(C)OC(C)=O (centres undefined)
(A) 91.8 µM

(Q) # query: TGI of entry CCC1CCc2nc3sc(C(=O)Nc4cccc(F)c4)c(N)c3cc2C1 (centres undefined)
(A) > 100 µM

(Q) Record request: TGI value, item Nc1nc(-c2ccccc2)nc(N)c1N=O
(A) 30.6 µM

(Q) Which TGI is reported for this compound? CC(C)[Si](OC1=CCC[C@H]2NC(=O)[C@@H](Cc3ccccc3)[C@@]12C)(C(C)C)C(C)C
(A) 13.1 µM

----------
Tested on: KM12 colon
assayProcedure: NCI tumour cell line growth inhibition, 48 h
endpoint: TGI

(Q) Short answer please: TGI, KM12 colon, entry CCCCS(=O)(=O)CCC(N)C(=O)O (centres undefined)
(A) > 100 µM

(Q) Lab request: please report TGI under test system KM12 colon for C[C@]1(CO)CCC[C@@]2(C)C1CC[C@H]1CC3C[C@]12CC[C@]3(C)O (some centres undefined)
(A) > 100 µM

(Q) Enter reported TGI observed with KM12 colon for COC(=O)/C=C/c1ccc2c(c1)CC1(C2)Cc2cc3c(cc2C1=O)CCC3 (centres undefined)
(A) > 100 µM

(Q) Request body: readout TGI, system KM12 colon, query CCOC(=O)c1c(N2CCCC2)[nH]c(=O)c(C(c2ccco2)c2c(O)c(C(=O)OCC)c(N3CCCC3)[nH]c2=O)c1O . Return the value.
(A) > 100 µM

(Q) Kindly state the measured TGI obtained for O=C(CCC(=O)C(C(=O)c1ccccc1)c1ccccc1)Nc1cccc(C(F)(F)F)c1 (centres undefined) with KM12 colon.
(A) > 100 µM

(Q) # get_value(readout= TGI, system= KM12 colon) for c1csc(-c2cc(-c3cccs3)c(-c3cccs3)s2)c1
(A) > 100 µM

(Q) # query: TGI | item O=C1C2C3C=CC(C2C(=O)N1COP(=O)(O)O)C1C2C(=O)N(COP(=O)(O)O)C(=O)C2C31 (centres undefined) | system: KM12 colon
(A) > 100 µM

(Q) # get_value(readout= TGI, system= KM12 colon) for CC(=C(C(N)=O)C(N)=O)C1C=C(c2cccs2)CC(c2ccc(Cl)cc2)=C1O (centres undefined)
(A) > 100 µM

(Q) Please provide the recorded TGI for NC1CC2NC3CCCCC3NC2CC1N (centres undefined) , tested on KM12 colon.
(A) > 100 µM

(Q) Param readout= TGI; system= KM12 colon; entry= CC(=O)N(O)[C@@H]1CC[C@H](n2cnc3c(N)ncnc32)C1 ; returns value.
(A) > 100 µM

(Q) Could you share what TGI was measured for CO/N=C(\C)COc1ccc2c(=O)c(-c3ccccc3)coc2c1 , tested on KM12 colon?
(A) > 100 µM

(Q) Give the reported TGI for Cn1c2ccccc2c2c(=O)[nH]c(=O)[nH]c21 (system: KM12 colon).
(A) > 100 µM

(Q) What reported TGI corresponds to N#Cc1c(N)nc(N2CCOCC2)c(C#N)c1-c1cccnc1 on KM12 colon?
(A) > 100 µM

(Q) Please tell me: TGI of c1ccc2c(c1)ncn2C1CCCCO1 (centres undefined) , system KM12 colon?
(A) > 100 µM

(Q) Can you look up TGI on KM12 colon for Cn1c(-c2ccccc2)cc2c3ccsc3c3ccsc3c21 ?
(A) > 100 µM

(Q) Which TGI is reported with KM12 colon for this entry: CCC(=O)c1c(NOC2OC(COC(C)=O)C(OC(C)=O)C(OC(C)=O)C2OC(C)=O)nc(OC)n(C)c1=O (centres undefined) ?
(A) > 100 µM

(Q) // map O=C(Nc1ccccc1)NS(=O)(=O)c1ccc(-n2nc3c(c2-c2ccc(Cl)cc2)Cc2ccccc2-3)cc1 to recorded TGI (system: KM12 colon)
(A) 55.1 µM

(Q) Enter reported TGI observed with KM12 colon for COc1ccc2c(c1)C(=O)c1c-2c(Nc2ccc(Cl)cc2)nc2ccccc12
(A) > 100 µM

(Q) Checklist item: TGI tested on KM12 colon, entry Cc1c2cnccc2c(C)c2c1c1ccccc1n2CCCCCCNCc1ccccc1 , value?
(A) 3.08 µM

(Q) Write down the reported TGI of CCOC(=O)C1OC(C2(C)OC3(OC4(C=CC3O)OC(C(C)C(=O)C(C)C(O)C(C)CC(C)c3c(Cl)cc(C)c(O)c3C(=O)O)C(C)CC4C)C(C)C2OC)CC1O (centres undefined) , test system: KM12 colon.
(A) 6.41 µM

(Q) Give KM12 colon TGI for COC1OC(COCc2ccc(Cl)cc2)C(OCc2ccc(Cl)cc2)C1N=[N+]=[N-] (centres undefined)
(A) > 100 µM

(Q) Missing value: TGI, KM12 colon, entry N=c1c2c(-c3ccccc3)c[nH]c2ncn1N . Fill in?
(A) > 100 µM

(Q) Give recorded TGI with KM12 colon for the following compound: CN(C)c1ccccc1CN1CCCN(Cc2ccccc2N(C)C)C1c1ccncc1
(A) 41.7 µM

(Q) Test system KM12 colon; read-out TGI; what value for CN(C)CCNC(=O)c1cccc2c1nc(-c1ccccc1)c1ccccc12 ?
(A) 20.1 µM

----------
Test system: DU-145 prostate
assayProcedure: NCI tumour cell line growth inhibition, 48 h
endpoint: GI50

(Q) // lookup GI50 for COc1ccc(Cn2cc3c(c2-c2ccc(OC)cc2)CCc2cnoc2-3)cc1
(A) 350 nM

(Q) Which GI50 is listed for Fc1ccc(Nc2nc3nonc3nc2Nc2ccc(F)cc2)cc1 ?
(A) 570 nM

(Q) What value of GI50 has been reported for the following compound? COc1cc(O)c(C(=O)/C=C/c2ccc(O)cc2)c(O)c1[C@@H]1C[C@H](CCc2ccc(O)cc2)O[C@H](c2ccc(O)cc2)C1
(A) 3220 nM

(Q) What value of GI50 has been reported for the following compound? Cc1cccc2c(=O)c3c(sc12)c(NCCNCCO)nc1ccccc13
(A) 1680 nM

(Q) # lookup: GI50 of COc1cc(C2=C(C#Cc3ccccc3)COC2=O)cc(OC)c1OC
(A) 293 nM

(Q) I'd like to know its GI50. The compound in question is O=C(Nc1ccccc1)NS(=O)(=O)c1ccc(-n2nc3c(c2-c2ccc(Cl)cc2)Cc2ccccc2-3)cc1
(A) 19400 nM

(Q) # query: GI50 of entry Nc1nc(-c2ccc(F)cc2)c(-c2ccc3ncccc3n2)s1
(A) 14100 nM

(Q) Suppose we examine the compound CN1c2ccccc2C(C)(C)C12C=Cc1cc(O)ccc1O2 (configuration not stated) ; what GI50 value has been reported?
(A) 2560 nM

(Q) Look up GI50 for this compound: CN(C)c1ccc(C(Cc2ccc3ccccc3n2)Cc2ccc3ccccc3n2)cc1
(A) > 100000 nM

(Q) May I ask what GI50 has been recorded for CC(=O)O[C@]1(C(C)=O)CC[C@H]2[C@@H]3C=C(C)C4=CC(=O)CC[C@]4(C)[C@H]3CC[C@@]21C ?
(A) > 100000 nM

(Q) Which GI50 value belongs to Cn1ccnc1C(=O)/C=C/c1ccccc1 ?
(A) 2800 nM

(Q) What value of measured GI50 is listed for COC(=O)C1=C(C)NC(C)=C(C(=O)OC)C1/C=C(Cl)/C=C/c1ccccc1 ?
(A) 18400 nM

----------
Tested on: OVCAR-8 ovarian
assayProcedure: NCI tumour cell line growth inhibition, 48 h
endpoint: TGI (µM)
Provide only the numeric value, understood in µM.

(Q) Requested read-out: TGI. Entry: O=C(Nc1ccccc1)NS(=O)(=O)c1ccc(-n2nc3c(c2-c2ccc(Cl)cc2)Cc2ccccc2-3)cc1
(A) 86.8

(Q) Consider the compound shown here: CCOC(=O)C1OC(C2(C)OC3(OC4(C=CC3O)OC(C(C)C(=O)C(C)C(O)C(C)CC(C)c3c(Cl)cc(C)c(O)c3C(=O)O)C(C)CC4C)C(C)C2OC)CC1O (centres undefined) What is its recorded TGI?
(A) 13.3

(Q) Item O=C(NCc1ccc(Cn2c(=O)sn(-c3ccccc3)c2=O)cc1)OCc1ccc2c(Br)cc(Br)c(O)c2n1 has what recorded TGI?
(A) 2.44

(Q) May I ask what TGI has been recorded for C=C1CC/C=C(\C)C(=O)C[C@@H]2[C@@H]1CC2(C)C ?
(A) 29.7

(Q) # query: TGI of entry O=C(/C=C/c1cc([N+](=O)[O-])ccc1Cl)c1ccccc1
(A) 33.5

(Q) // query TGI value for entry CN(CC(=O)N(Cc1ccc(C2CCCCC2)cc1)c1ccc(C(=O)O)c(O)c1)S(=O)(=O)c1c(F)c(F)c(F)c(F)c1F
(A) 20.5

Hey, just so you know, these numbers are from PubChem BioAssay (NCI).
